Tested on: Staphylococcus aureus
Assay name: Antimicrobial activity against methicillin-resistant Staphylococcus aureus
Assay type: functional
Experimental readout: MIC (µg/mL)
Give just the numeric value; µg/mL need not be written.

Here's what some known entries look like.
{"Item smiles": "Cc1ccc(-c2nc(-c3c(C)[nH]c4ccccc34)[nH]c2-c2ccc(C)cc2)cc1", "Study system": "Staphylococcus aureus", "MIC, µg/mL": 8}
{"Item smiles": "Cc1[nH]c2ccccc2c1-c1nc(-c2ccc(F)cc2)c(-c2ccccc2)[nH]1", "Study system": "Staphylococcus aureus", "MIC, µg/mL": 4}
{"Item smiles": "Cc1[nH]c2ccccc2c1-c1nc(-c2ccccc2)c(-c2ccccc2)[nH]1", "Study system": "Staphylococcus aureus", "MIC, µg/mL": 4}
{"Item smiles": "Clc1ccc(-c2nc(-c3c[nH]c4ccc(Br)cc34)[nH]c2-c2ccc(Cl)cc2)cc1", "Study system": "Staphylococcus aureus", "MIC, µg/mL": 2}
{"Item smiles": "Cc1ccc(-c2nc(-c3c[nH]c4ccc(Br)cc34)[nH]c2-c2ccc(C)cc2)cc1", "Study system": "Staphylococcus aureus", "MIC, µg/mL": 4}

Entry under review: `Brc1ccc2[nH]cc(-c3nc(-c4ccc(-c5ccccc5)cc4)c(-c4ccccc4)[nH]3)c2c1` . Reported MIC?
4

Entry under review: `Cc1[nH]c2ccccc2c1-c1nc(-c2ccc(-c3ccccc3)cc2)c(-c2ccccc2)[nH]1` . Reported MIC?
2

Entry under review: `Clc1ccc(-c2nc(-c3c[nH]c4ccc(Br)cc34)[nH]c2-c2ccccc2)cc1` . Reported MIC?
1

Entry under review: `Cc1[nH]c2ccccc2c1-c1nc(-c2ccc(Br)cc2)c(-c2ccc(Br)cc2)[nH]1` . Reported MIC?
2

Entry under review: `Fc1ccc(-c2nc(-c3c[nH]c4ccc(Br)cc34)[nH]c2-c2ccccc2)cc1` . Reported MIC?
2

Entry under review: `Cc1[nH]c2ccccc2c1-c1nc(-c2ccc(Cl)cc2)c(-c2ccccc2)[nH]1` . Reported MIC?
8

Entry under review: `Cc1[nH]c2ccccc2c1-c1nc(-c2ccc([N+](=O)[O-])cc2)c(-c2ccccc2)[nH]1` . Reported MIC?
8

====

// values below are reported MIC
System: Staphylococcus aureus
Assay name: Antimicrobial activity against methicillin-resistant Staphylococcus aureus
Type: functional
Give just the numeric value; µg/mL need not be written.

Here's what some known entries look like.
{"Item smiles": "Brc1ccc(-c2nc(-c3c[nH]c4ccc(Br)cc34)[nH]c2-c2ccccc2)cc1", "Units": "µg/mL", "MIC": 2}
{"Item smiles": "Cc1ccc(-c2nc(-c3c(C)[nH]c4ccccc34)[nH]c2-c2ccccc2)cc1", "Units": "µg/mL", "MIC": 4}
{"Item smiles": "Cc1[nH]c2ccccc2c1-c1nc(-c2ccc(N(C)C)cc2)c(-c2ccc(N(C)C)cc2)[nH]1", "Units": "µg/mL", "MIC": 2}
{"Item smiles": "Cc1[nH]c2ccccc2c1-c1nc(-c2ccc(Br)cc2)c(-c2ccccc2)[nH]1", "Units": "µg/mL", "MIC": 4}

Turning to the following compound.
Entry under review: `CN(C)c1ccc(-c2nc(-c3c[nH]c4ccc(Br)cc34)[nH]c2-c2ccc(N(C)C)cc2)cc1` . Reported MIC?
2
